Some compounds, each annotated with its measured inhibition at 20 µM.
target: tie2 (Homo sapiens); assay: Kinase assay (ELISA or Alphascreen), tie2; format: biochemical; conditions: standard conditions, read-out: tie2 inhibition of enzyme activity
Sequence (Q02763 824-1096 limits assumed, species assumed): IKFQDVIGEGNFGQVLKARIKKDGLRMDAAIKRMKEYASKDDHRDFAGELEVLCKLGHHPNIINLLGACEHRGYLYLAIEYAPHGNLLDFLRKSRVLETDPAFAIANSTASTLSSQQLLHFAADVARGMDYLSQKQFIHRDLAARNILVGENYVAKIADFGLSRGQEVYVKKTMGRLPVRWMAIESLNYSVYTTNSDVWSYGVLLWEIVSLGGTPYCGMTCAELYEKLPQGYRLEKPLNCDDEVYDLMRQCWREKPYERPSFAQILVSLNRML

These solved cases illustrate the format of a correct answer.
1) C[C@H](Nc1cncc(-n2cnc3ccc(CN4CCCC4)cc32)n1)c1ccc(F)cc1	≥ 50%
2) N#Cc1ccc2c(c1)ncn2-c1cncc(NC2CCc3cc(F)ccc32)n1 (stereo not shown)	≥ 50%
3) N#Cc1ccc2c(c1)ncn2-c1cncc(N[C@H]2CCc3ccccc32)n1	≥ 50%
4) C[C@H](Nc1cncc(-n2cnc3ccc(CN4CCNCC4)cc32)n1)c1ccc(F)cc1	≥ 50%
5) CC[C@H](Nc1cncc(-n2cnc3cc(C#N)ccc32)n1)c1ccccc1	≥ 50%

Per the record, N#Cc1ccc2ncn(-c3cncc(N[C@H]4CCc5ccccc54)n3)c2c1 has inhibition at 20 µM of ≥ 50%

Per the record, Cc1ncc(-n2cnc3ccc(C#N)cc32)nc1N[C@@H](C)c1cccc(F)c1 has inhibition at 20 µM of ≥ 50%

###

target: human JAK3 (Homo sapiens); construct: The kinase domain of human JAK3 was amplified from U937mRNA; His tag (pFastBac HTb vector; nickel chelate purification) (N); made in house; host or cells: baculovirus; Sf9 for virus, High Five insect cells for production; experiment: JAK kinase assay (ELISA or Alphascreen), Jak3; format: biochemical; settings: standard conditions, read-out: Jak3 inhibition of enzyme activity
MEASURED PROPERTY: inhibition at 20 µM

1) N#Cc1ccc2ncn(-c3cncc(N[C@H]4CCc5ccccc54)n3)c2c1	≥ 50%
2) CC(Nc1cncc(-n2cnc3cc(C#N)ccc32)n1)c1cccc2ccccc12 (centres unmarked)	< 50%
3) N#Cc1ccc2c(c1)ncn2-c1cncc(NC2Cc3ccccc3C2)n1	< 50%
4) C[C@H](Nc1cncc(-n2cnc3ccc(CO)cc32)n1)c1ccc(F)cc1	< 50%
5) N#Cc1ccc2c(c1)ncn2-c1cncc(NC2CCc3ccc(O)cc32)n1 (centres unmarked)	< 50%

Per the record, CC(Nc1cncc(-n2cnc3cc(CN(C)C)ccc32)n1)c1ccc(F)cc1 (centres unmarked) has inhibition at 20 µM of < 50%

Per the record, COc1cccc([C@H](C)Nc2cncc(-n3cnc4ccccc43)n2)c1 has inhibition at 20 µM of < 50%

Per the record, C[C@H](Nc1cncc(-n2cnc3ccc(CN4CCC(O)CC4)cc32)n1)c1ccc(F)cc1 has inhibition at 20 µM of < 50%

Per the record, CC(Nc1cncc(-n2cnc3cc(C#N)ccc32)n1)c1cccc(F)c1 (centres unmarked) has inhibition at 20 µM of ≥ 50%

Per the record, CC(Nc1cncc(-n2cnc3ccc(C#N)cc32)n1)c1cccc(OC(F)(F)F)c1 (centres unmarked) has inhibition at 20 µM of < 50%

Per the record, c1ccc2c(c1)ncn2-c1cncc(-c2ccncc2)n1 has inhibition at 20 µM of < 50%

###

Some compounds, each annotated with its measured inhibition at 20 µM.
Target: human JAK3 (Homo sapiens, UniProt P52333)
Construct: The kinase domain of human JAK3 was amplified from U937mRNA; His tag (pFastBac HTb vector; nickel chelate purification) (N); made in house; host or cells: baculovirus; Sf9 for virus, High Five insect cells for production
Sequence (P52333 822-1111 limits assumed): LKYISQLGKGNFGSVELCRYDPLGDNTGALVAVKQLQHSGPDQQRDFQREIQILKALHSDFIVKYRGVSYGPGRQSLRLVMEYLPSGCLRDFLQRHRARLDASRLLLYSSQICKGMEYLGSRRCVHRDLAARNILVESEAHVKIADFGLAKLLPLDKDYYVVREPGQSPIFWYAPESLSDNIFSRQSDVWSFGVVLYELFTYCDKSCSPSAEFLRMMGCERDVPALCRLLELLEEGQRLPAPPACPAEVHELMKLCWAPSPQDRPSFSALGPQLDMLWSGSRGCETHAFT
Assay: JAK kinase assay (ELISA or Alphascreen), Jak3
Format: biochemical
Details: standard conditions, read-out: Jak3 inhibition of enzyme activity
From the text: The kinase domain of human JAK3 was amplified from U937mRNA using the polymerase chain reaction with the following primers: […] JAK3 PCR products were cloned into the pFastBac HTb expression vector (Gibco) via the Xho I and Kpn I sites. The JAK3 plasmid was then transformed into competent DH10Bac cells (Gibco), and the recombinant baculovirus produced prepared for transfection into Sf9 insect cells. […]

These solved cases illustrate the format of a correct answer.
1. CC(Nc1cncc(-n2cnc3ccc(C#N)cc32)n1)c1cccc2ccccc12 (stereo not shown)	< 50%
2. C[C@H](Nc1cncc(-n2cnc3cc(C(=O)NCCCCN4CCOCC4)ccc32)n1)c1ccccc1	< 50%
3. Cc1ccc([C@H](C)Nc2cncc(-n3cnc4cc(C#N)ccc43)n2)cc1	< 50%
4. C[C@H](Nc1cncc(-n2ncc3ccccc32)n1)c1ccc(F)cc1	< 50%
5. Cc1ccc([C@H](C)Nc2cncc(-n3cnc4ccc(C#N)cc43)n2)cc1	≥ 50%
6. C[C@H](Nc1cncc(-n2cnc3ccc(CN4CCCC4)cc32)n1)c1ccc(F)cc1	< 50%

Moving on to the next compound.
Per the record, CC(Nc1cncc(-n2cnc3cc(C#N)ccc32)n1)c1ccccc1F (stereo not shown) has inhibition at 20 µM of ≥ 50%

###

molecular target: human JAK2 (Homo sapiens, UniProt O60674); construct: The kinase domain of human JAK2 was amplified from U937mRNA; His tag (pFastBac HTc vector; nickel chelate purification) (N); made in house; host or cells: baculovirus; Sf9 for virus, High Five insect cells for production; test: JAK kinase assay (ELISA or Alphascreen), Jak2; format: biochemical; conditions: standard conditions, read-out: Jak2 inhibition of enzyme activity
Sequence (O60674 849-1124 limits assumed): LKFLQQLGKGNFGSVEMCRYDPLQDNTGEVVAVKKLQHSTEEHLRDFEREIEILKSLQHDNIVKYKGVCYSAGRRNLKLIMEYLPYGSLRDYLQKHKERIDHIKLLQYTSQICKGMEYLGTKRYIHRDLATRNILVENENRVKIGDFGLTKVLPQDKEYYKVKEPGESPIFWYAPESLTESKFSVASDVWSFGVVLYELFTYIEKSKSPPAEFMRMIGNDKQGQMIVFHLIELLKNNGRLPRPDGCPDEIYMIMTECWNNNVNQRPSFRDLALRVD
MEASURED PROPERTY: inhibition at 20 µM

These solved cases illustrate the format of a correct answer.
1) C[C@H](Nc1cncc(-n2cnc3cc(CO)ccc32)n1)c1ccc(F)cc1	< 50%
2) CC(Nc1cncc(-n2cnc3cc(C#N)ccc32)n1)c1cccnc1 (stereo not shown)	≥ 50%
3) CC[C@H](Nc1cncc(-n2cnc3cc(C#N)ccc32)n1)c1ccccc1	≥ 50%

Per the record, CCNC(=O)Nc1ccc2c(c1)ncn2-c1cncc(N[C@@H](C)c2ccccc2)n1 has inhibition at 20 µM of ≥ 50%

Per the record, CC(Nc1cncc(-n2cnc3cc(C#N)ccc32)n1)c1ccc(F)c(Cl)c1 (stereo not shown) has inhibition at 20 µM of ≥ 50%

Per the record, N#Cc1ccc2c(c1)ncn2-c1cncc(N[C@H]2CCc3ccccc32)n1 has inhibition at 20 µM of ≥ 50%

Per the record, N#Cc1ccc2c(c1)ncn2-c1cncc(N2CCc3ccccc3C2)n1 has inhibition at 20 µM of < 50%

Per the record, C[C@H](Nc1cncc(-n2cnc3cc(NC(=O)c4ccc(CN5CCN(C)CC5)cc4)ccc32)n1)c1ccccc1 has inhibition at 20 µM of < 50%

Per the record, CC[C@H](Nc1cncc(-n2cnc3ccccc32)n1)c1ccccc1 has inhibition at 20 µM of ≥ 50%

Per the record, Cc1ncc(-n2cnc3ccc(C#N)cc32)nc1N[C@@H](C)c1ccccc1 has inhibition at 20 µM of ≥ 50%

###

molecular target: human JAK3 (Homo sapiens); construct: The kinase domain of human JAK3 was amplified from U937mRNA; His tag (pFastBac HTb vector; nickel chelate purification) (N); made in house; host or cells: baculovirus; Sf9 for virus, High Five insect cells for production; experiment: JAK kinase assay (ELISA or Alphascreen), Jak3; format: biochemical; settings: standard conditions, read-out: Jak3 inhibition of enzyme activity
Some molecules, each annotated with its measured inhibition at 20 µM.

1) CCNC(=O)Nc1ccc2c(c1)ncn2-c1cncc(N[C@@H](C)c2ccccc2)n1	< 50%

Per the record, CC(Nc1cncc(-n2cnc3ccc(C#N)cc32)n1)c1ccc(F)c(F)c1 (stereo not drawn) has inhibition at 20 µM of ≥ 50%

Per the record, C[C@H](Nc1cncc(-n2cnc3cc(CO)ccc32)n1)c1ccc(F)cc1 has inhibition at 20 µM of < 50%

Per the record, N#Cc1ccc2ncn(-c3cncc(Cl)n3)c2c1 has inhibition at 20 µM of < 50%

Per the record, COc1ccc2c(c1)CCC2Nc1cncc(-n2cnc3cc(C#N)ccc32)n1 (stereo not drawn) has inhibition at 20 µM of < 50%

Per the record, N#Cc1ccc2ncn(-c3cncc(N[C@H]4CCCc5ccccc54)n3)c2c1 has inhibition at 20 µM of < 50%

Per the record, C[C@H](Nc1cncc(-n2cnc3ccc(CN4CCN(CCN)CC4)cc32)n1)c1ccc(F)cc1 has inhibition at 20 µM of < 50%

Per the record, CC(Nc1cncc(-n2cnc3cc(C#N)ccc32)n1)c1cccnc1 (stereo not drawn) has inhibition at 20 µM of ≥ 50%

###

Some compounds, each annotated with its measured inhibition at 20 µM.
biological target: human JAK2 (Homo sapiens); construct: The kinase domain of human JAK2 was amplified from U937mRNA; His tag (pFastBac HTc vector; nickel chelate purification) (N); made in house; host or cells: baculovirus; Sf9 for virus, High Five insect cells for production; test: JAK kinase assay (ELISA or Alphascreen), Jak2; assay type: biochemical; conditions: standard conditions, read-out: Jak2 inhibition of enzyme activity

1. C[C@H](Nc1cncc(-n2cnc3ccc(CN4CCCC4)cc32)n1)c1ccc(F)cc1	≥ 50%

Record C[C@H](Nc1cncc(-n2ncc3ccccc32)n1)c1ccc(F)cc1 has human JAK2 (Homo sapiens) inhibition at 20 µM equal to < 50%

Record N#Cc1ccc2ncn(-c3cncc(NC4CCc5cc(F)ccc54)n3)c2c1 (centres unmarked) has human JAK2 (Homo sapiens) inhibition at 20 µM equal to < 50%

Record CCCC(Nc1cncc(-n2cnc3ccccc32)n1)c1ccccc1 (centres unmarked) has human JAK2 (Homo sapiens) inhibition at 20 µM equal to ≥ 50%
